Entries and their measured pKd follow.
testedTarget: Phosphatidylinositol 3-kinase catalytic subunit type 3 (Homo sapiens)
Sequence (Q8NEB9 whole entry, the tested form may be a part): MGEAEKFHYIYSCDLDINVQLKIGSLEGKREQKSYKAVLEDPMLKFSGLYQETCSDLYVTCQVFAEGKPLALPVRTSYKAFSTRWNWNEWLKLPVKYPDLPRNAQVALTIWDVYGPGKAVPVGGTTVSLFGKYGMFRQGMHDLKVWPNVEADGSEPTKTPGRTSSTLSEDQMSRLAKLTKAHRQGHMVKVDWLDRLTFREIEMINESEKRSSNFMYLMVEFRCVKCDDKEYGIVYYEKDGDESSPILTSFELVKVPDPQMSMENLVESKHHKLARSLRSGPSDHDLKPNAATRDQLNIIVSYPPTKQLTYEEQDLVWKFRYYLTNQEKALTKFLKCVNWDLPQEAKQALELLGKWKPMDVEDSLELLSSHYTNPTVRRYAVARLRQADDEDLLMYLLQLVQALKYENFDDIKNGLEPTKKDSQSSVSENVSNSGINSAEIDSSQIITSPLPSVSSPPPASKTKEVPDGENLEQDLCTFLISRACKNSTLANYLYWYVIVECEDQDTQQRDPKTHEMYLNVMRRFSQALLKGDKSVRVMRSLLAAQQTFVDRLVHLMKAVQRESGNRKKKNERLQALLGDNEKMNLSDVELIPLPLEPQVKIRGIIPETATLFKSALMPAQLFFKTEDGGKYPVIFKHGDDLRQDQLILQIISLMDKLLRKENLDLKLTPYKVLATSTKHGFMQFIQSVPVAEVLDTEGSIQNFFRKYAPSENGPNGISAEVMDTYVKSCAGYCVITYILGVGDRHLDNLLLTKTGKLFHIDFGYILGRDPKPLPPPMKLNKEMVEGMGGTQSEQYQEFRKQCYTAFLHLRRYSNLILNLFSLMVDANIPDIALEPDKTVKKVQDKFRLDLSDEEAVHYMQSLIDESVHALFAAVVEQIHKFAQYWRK
protocolText: Binding affinity to human wild-type partial length VPS34 (S282 to H879 residues) expressed in mammalian expression system by kinome scan assay
Remember the convention: pKd equals -log10 of concentration in molar.

Observe how each entry below is paired with its result.
- sampleSmiles: "C[C@@H]1COCCN1c1nc(-c2cnc(N)nc2)nc2c1C[C@@H]1COCCN21"
  testValue: 6.01
- sampleSmiles: "C[C@@H]1COCCN1c1nc(-c2cnc(N)cn2)nc2c1C[C@@H]1COCCN21"
  testValue: 5.49

Here's the next entry for you.
Q. Item C[C@@H]1COCCN1c1nc(-c2ccc(N)nc2)nc2c1C[C@@H]1COCCN21 has what recorded pKd?
A. 5.68
